biological target: h5-HT Transporter (Homo sapiens, UniProt P31645)
Sequence (P31645 whole entry): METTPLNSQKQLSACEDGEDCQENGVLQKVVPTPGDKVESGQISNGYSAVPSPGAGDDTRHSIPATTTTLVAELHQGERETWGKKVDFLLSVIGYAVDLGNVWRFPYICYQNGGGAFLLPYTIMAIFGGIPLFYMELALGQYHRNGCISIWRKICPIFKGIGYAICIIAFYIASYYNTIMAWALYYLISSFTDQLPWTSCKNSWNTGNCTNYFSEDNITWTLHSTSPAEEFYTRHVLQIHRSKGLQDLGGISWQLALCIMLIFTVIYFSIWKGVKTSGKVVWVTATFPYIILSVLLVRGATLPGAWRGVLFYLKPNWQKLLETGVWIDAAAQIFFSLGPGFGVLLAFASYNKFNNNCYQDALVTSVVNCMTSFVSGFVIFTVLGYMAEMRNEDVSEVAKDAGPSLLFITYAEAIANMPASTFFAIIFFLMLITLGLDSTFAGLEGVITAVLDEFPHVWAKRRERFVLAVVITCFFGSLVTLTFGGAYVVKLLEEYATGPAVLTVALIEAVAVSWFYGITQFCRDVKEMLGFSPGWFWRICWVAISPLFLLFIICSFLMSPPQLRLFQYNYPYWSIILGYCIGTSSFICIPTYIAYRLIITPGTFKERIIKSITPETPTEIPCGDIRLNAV
Binary label based on IC50 with cut-off 200 nM: below gives Satisfied, not below gives Not satisfied.

Example entries and their recorded answers appear below.
[
  {
    "Molecule": "CNC(=O)c1ccc(OC)c2c1C[C@@H](N(CCCc1c[nH]c3ccc(F)cc13)CCC(F)(F)F)CO2",
    "Cat": "Not satisfied"
  },
  {
    "Molecule": "COc1ccc(C(N)=O)c2c1OC[C@H](N(CCCC1CNc3ccc(F)cc31)C1CCC1)C2 (some centres unmarked)",
    "Cat": "Not satisfied"
  },
  {
    "Molecule": "COc1ccc(C(N)=O)c2c1OC[C@H](NCCCc1c[nH]c3ccc(F)cc13)C2",
    "Cat": "Not satisfied"
  }
]

Task: Record CSc1ccc(C(N)=O)c2c1OC[C@H](N(CCCc1c[nH]c3ccc(F)cc13)C1CCC1)C2 : is its IC50 strictly below 200 nM?
Result: Not satisfied

Task: Would you kindly verify if IC50 of COc1ccc(C(N)=O)c2c1OC[C@H](N(CCCc1c[nH]c3ccc(F)cc13)CC1CC1)C2 is strictly less than 200 nM?
Result: Satisfied

Task: Criterion: IC50 strictly below 200 nM. Is it met by CCCCN(CCCc1c[nH]c2ccc(F)cc12)[C@H]1COc2c(OC)ccc(C(N)=O)c2C1 ?
Result: Not satisfied

Task: Report whether reported IC50 is lower than 200 nM (strictly) for COc1ccc(C(N)=O)c2c1OC[C@H](N(CCCc1c[nH]c3c(F)cc(F)cc13)C1CCC1)C2
Result: Satisfied

Task: Please determine if COc1ccc(C(N)=O)c2c1OC[C@H](N(CCCc1c[nH]c3ccc(F)cc13)C1CCC1)C2 is below 200 nM in terms of IC50.
Result: Satisfied
